- System: Achaea janata
- experimental.details: Insecticidal activity against Achaea janata assessed as pupal duration at 4 ug/larva administered through topical application (reference value: 10.3 +/- 0.1 days)
- Type: functional
// reported Time for each item listed
Entry rule: numbers only, all in days.

COc1c(CC=C(C)C)c2c(c3oc(=O)c(-c4ccc(O)cc4)c(O)c13)C=CC(C)(C)O2 [SCANDENIN] ... 11.3
COc1c(CC=C(C)C)c2c(c3occ(-c4ccc(O)cc4)c(=O)c13)C=CC(C)(C)O2 [SCANDINONE] ... 12.5
CC(C)=CCc1cc(-c2coc3cc(O)c(CC=C(C)C)c(O)c3c2=O)ccc1O [LUPALBIGENIN] ... 12.9
COc1c2c(c(CC=C(C)C)c(O)c1C(=O)C(=O)c1ccc(O)cc1)OC(C)(C)C=C2 [Derrisdione A] ... 12.5

Given the compound COc1c(CC=C(C)C)c2c(c(O)c1C(=O)C(=O)c1ccc(O)cc1)C=CC(C)(C)O2 , write its reported Time.
13.5

* * *

- System: Achaea janata
- experimental.details: Insecticidal activity against Achaea janata assessed as adult emergence at 4 ug/larva administered through topical application (reference value: 98.8 +/- 0.5 %)
- Format: functional
// reported Activity for each item listed
Entry rule: numbers only, all in %.

Sample answers from the record:
COc1c(CC=C(C)C)c2c(c3oc(=O)c(-c4ccc(O)cc4)c(O)c13)C=CC(C)(C)O2 [SCANDENIN] ... 18.6
C/C=C(\C)C(=O)O[C@H]1C[C@@H](OC(C)=O)[C@@]2(C(=O)OC)CO[C@H]3[C@@H](O)[C@@](C)([C@]45O[C@@]4(C)[C@@H]4C[C@H]5O[C@@H]5OC=C[C@@]54O)[C@H]4[C@]1(CO[C@]4(O)C(=O)OC)[C@@H]32 [AZADIRACHTIN A] ... 98.8
COc1c(CC=C(C)C)c2c(c3occ(-c4ccc(O)cc4)c(=O)c13)C=CC(C)(C)O2 [SCANDINONE] ... 34.2
CC(C)=CCc1c2c(c3occ(-c4ccc(O)cc4)c(=O)c3c1O)C=CC(C)(C)O2 [OSAJIN] ... 2.9
CC(C)=CCc1cc(-c2coc3cc(O)c(CC=C(C)C)c(O)c3c2=O)ccc1O [LUPALBIGENIN] ... 32.8

Given the compound COc1ccc(-c2c(O)c3c(OC)c(CC=C(C)C)c4c(c3oc2=O)C=CC(C)(C)O4)cc1 [SCANDENIN A] , write its reported Activity.
31.5

Given the compound COc1c(CC=C(C)C)c2c(c(O)c1C(=O)C(=O)c1ccc(O)cc1)C=CC(C)(C)O2 , write its reported Activity.
6.7

* * *

- System: Achaea janata
- experimental.details: Insecticidal activity against Achaea janata assessed as pupal duration at 4 ug/larva administered through topical application (reference value: 10.3 +/- 0.1 days)
- Format: functional
// reported Time for each item listed
Entry rule: numbers only, all in days.

Sample answers from the record:
CC(C)=CCc1c2c(c(O)c3c(=O)c(-c4ccc(O)cc4)coc13)C=CC(C)(C)O2 [WARANGALONE] ... 11.9
C[C@@H]1O[C@@H](OC[C@H]2O[C@@H](Oc3cc(O)c4c(=O)c(-c5ccc(O)cc5)coc4c3)[C@H](O)[C@@H](O)[C@@H]2O)[C@H](O)[C@H](O)[C@H]1O [SPHAEROBIOSIDE] ... 14.4
CC(C)=CCc1c2c(c3occ(-c4ccc(O)cc4)c(=O)c3c1O)C=CC(C)(C)O2 [OSAJIN] ... 15.5
CC(C)=CCc1c2c(c(O)c3c(=O)cc(-c4ccc(O)cc4)oc13)C=CC(C)(C)O2 [LAXIFOLIN] ... 14.1
C/C=C(\C)C(=O)O[C@H]1C[C@@H](OC(C)=O)[C@@]2(C(=O)OC)CO[C@H]3[C@@H](O)[C@@](C)([C@]45O[C@@]4(C)[C@@H]4C[C@H]5O[C@@H]5OC=C[C@@]54O)[C@H]4[C@]1(CO[C@]4(O)C(=O)OC)[C@@H]32 [AZADIRACHTIN A] ... 10.3

Given the compound COc1ccc(-c2c(O)c3c(OC)c(CC=C(C)C)c4c(c3oc2=O)C=CC(C)(C)O4)cc1 [SCANDENIN A] , write its reported Time.
10.5

* * *

- System: Achaea janata
- experimental.details: Insecticidal activity against Achaea janata assessed as adult emergence at 4 ug/larva administered through topical application (reference value: 98.8 +/- 0.5 %)
- Type: functional
Param threshold (20%) applies to Activity; output Satisfied when value >= threshold, Not satisfied when value < threshold.

O=c1c(-c2ccc(O)cc2)coc2cc(O)cc(O)c12 ... Not satisfied
CC(C)=CCc1c2c(c(O)c3c(=O)cc(-c4ccc(O)cc4)oc13)C=CC(C)(C)O2 ... Satisfied
CC(C)=CCc1c2c(c(O)c3c(=O)c(-c4ccc(O)cc4)coc13)C=CC(C)(C)O2 ... Satisfied

Could you verify whether the entry C[C@@H]1O[C@@H](OC[C@H]2O[C@@H](Oc3cc(O)c4c(=O)c(-c5ccc(O)cc5)coc4c3)[C@H](O)[C@@H](O)[C@@H]2O)[C@H](O)[C@H](O)[C@H]1O [SPHAEROBIOSIDE] shows Activity of no less than 20%?
Not satisfied

Could you verify whether the entry COc1c2c(c(CC=C(C)C)c(O)c1C(=O)C(=O)c1ccc(O)cc1)OC(C)(C)C=C2 shows Activity of no less than 20%?
Satisfied

* * *

// reported Activity for each item listed
- System: Achaea janata
- experimental.details: Toxicity against Achaea janata at 10 ug/cm2 after 24 hr by leaf disk method
- Type: functional
In your response, the unit should come after the numeric value.

Sample answers from the record:
CC(C)=CCc1c2c(c(O)c3c(=O)c(-c4ccc(O)cc4)coc13)C=CC(C)(C)O2 [WARANGALONE] ... 6.8%
COc1c2c(c(CC=C(C)C)c(O)c1C(=O)C(=O)c1ccc(O)cc1)OC(C)(C)C=C2 [Derrisdione A] ... 18.2%
O=c1c(-c2ccc(O)cc2)coc2cc(O)cc(O)c12 [GENISTEIN] ... 100%

Given the compound CC(C)=CCc1cc(-c2coc3cc(O)c(CC=C(C)C)c(O)c3c2=O)ccc1O [LUPALBIGENIN] , write its reported Activity.
0%

* * *

- Tested on: Achaea janata
- experimental.details: Insecticidal activity against Achaea janata assessed as larval mortality at 4 ug/larva administered through topical application
- Assay type: functional
Param threshold (30%) applies to mortality; output label 1 when value >= threshold, label 0 when value < threshold.

These recorded examples may help you get a feel for the data.
COc1c(CC=C(C)C)c2c(c3oc(=O)c(-c4ccc(O)cc4)c(O)c13)C=CC(C)(C)O2 [SCANDENIN] ... label 1
CC(C)=CCc1c2c(c(O)c3c(=O)c(-c4ccc(O)cc4)coc13)C=CC(C)(C)O2 [WARANGALONE] ... label 0
C[C@@H]1O[C@@H](OC[C@H]2O[C@@H](Oc3cc(O)c4c(=O)c(-c5ccc(O)cc5)coc4c3)[C@H](O)[C@@H](O)[C@@H]2O)[C@H](O)[C@H](O)[C@H]1O [SPHAEROBIOSIDE] ... label 1
COc1ccc(-c2c(O)c3c(OC)c(CC=C(C)C)c4c(c3oc2=O)C=CC(C)(C)O4)cc1 [SCANDENIN A] ... label 0
COc1c(CC=C(C)C)c2c(c(O)c1C(=O)C(=O)c1ccc(O)cc1)C=CC(C)(C)O2 ... label 1
CC(C)=CCc1c2c(c3occ(-c4ccc(O)cc4)c(=O)c3c1O)C=CC(C)(C)O2 [OSAJIN] ... label 1

Now look at this entry.
Could you verify whether the entry CC(C)=CCc1c2c(c(O)c3c(=O)cc(-c4ccc(O)cc4)oc13)C=CC(C)(C)O2 [LAXIFOLIN] shows mortality of no less than 30%?
label 0

* * *

- System: Achaea janata
- experimental.details: Insecticidal activity against Achaea janata assessed as larval mortality at 4 ug/larva administered through topical application
- Type: functional
measurement.name: mortality

Sample answers from the record:
COc1c2c(c(CC=C(C)C)c(O)c1C(=O)C(=O)c1ccc(O)cc1)OC(C)(C)C=C2 [Derrisdione A] ... 0%
O=c1c(-c2ccc(O)cc2)coc2cc(O)cc(O)c12 [GENISTEIN] ... 48.6%
COc1c(CC=C(C)C)c2c(c3occ(-c4ccc(O)cc4)c(=O)c13)C=CC(C)(C)O2 [SCANDINONE] ... 17%

Given the molecule CC(C)=CCc1cc(-c2coc3cc(O)c(CC=C(C)C)c(O)c3c2=O)ccc1O [LUPALBIGENIN] , write its reported mortality.
18.8%

* * *

- Test system: Achaea janata
- experimental.details: Insecticidal activity against Achaea janata assessed as larval mortality at 2 ug/larva administered through topical application
- Assay type: functional
Param threshold (7%) applies to mortality; output yes when value >= threshold, no when value < threshold.

These recorded examples may help you get a feel for the data.
COc1ccc(-c2c(O)c3c(OC)c(CC=C(C)C)c4c(c3oc2=O)C=CC(C)(C)O4)cc1 ... yes
C[C@@H]1O[C@@H](OC[C@H]2O[C@@H](Oc3cc(O)c4c(=O)c(-c5ccc(O)cc5)coc4c3)[C@H](O)[C@@H](O)[C@@H]2O)[C@H](O)[C@H](O)[C@H]1O [SPHAEROBIOSIDE] ... yes
COc1c2c(c(CC=C(C)C)c(O)c1C(=O)C(=O)c1ccc(O)cc1)OC(C)(C)C=C2 ... no
CC(C)=CCc1c2c(c(O)c3c(=O)c(-c4ccc(O)cc4)coc13)C=CC(C)(C)O2 ... no
COc1c(CC=C(C)C)c2c(c(O)c1C(=O)C(=O)c1ccc(O)cc1)C=CC(C)(C)O2 ... yes
CC(C)=CCc1cc(-c2coc3cc(O)c(CC=C(C)C)c(O)c3c2=O)ccc1O ... no

Could you verify whether the entry COc1c(CC=C(C)C)c2c(c3oc(=O)c(-c4ccc(O)cc4)c(O)c13)C=CC(C)(C)O2 shows mortality of no less than 7%?
no

Could you verify whether the entry CC(C)=CCc1c2c(c3occ(-c4ccc(O)cc4)c(=O)c3c1O)C=CC(C)(C)O2 shows mortality of no less than 7%?
yes

Could you verify whether the entry CC(C)=CCc1c2c(c(O)c3c(=O)cc(-c4ccc(O)cc4)oc13)C=CC(C)(C)O2 shows mortality of no less than 7%?
yes

Could you verify whether the entry O=c1c(-c2ccc(O)cc2)coc2cc(O)cc(O)c12 shows mortality of no less than 7%?
yes

Entry source: ChEMBL document CHEMBL3045557
